TGT: Calcium/calmodulin-dependent protein kinase type IV (Homo sapiens) (UniProt Q16566)
Sequence (Q16566 whole entry): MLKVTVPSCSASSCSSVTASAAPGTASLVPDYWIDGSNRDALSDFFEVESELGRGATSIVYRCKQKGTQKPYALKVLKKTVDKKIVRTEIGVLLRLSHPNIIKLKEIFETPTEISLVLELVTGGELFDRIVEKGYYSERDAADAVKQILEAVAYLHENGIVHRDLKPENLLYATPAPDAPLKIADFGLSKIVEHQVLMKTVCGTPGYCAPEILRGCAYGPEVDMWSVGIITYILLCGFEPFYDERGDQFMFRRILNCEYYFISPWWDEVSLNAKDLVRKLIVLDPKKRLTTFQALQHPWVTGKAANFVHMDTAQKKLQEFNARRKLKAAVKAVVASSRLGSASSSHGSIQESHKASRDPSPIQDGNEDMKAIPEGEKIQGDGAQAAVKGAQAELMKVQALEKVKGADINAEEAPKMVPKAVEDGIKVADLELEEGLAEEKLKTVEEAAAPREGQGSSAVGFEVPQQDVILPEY
DETAILS: at 1 µM;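 also: each value is the mean of the measured CAMK4 inhibition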
# key: entry, value: inhibition
Express it in %; write the number only.

smi=CS(=O)(=O)CCNCc1coc(-c2ccc3ncnc(Nc4ccc(OCc5ccccc5)cc4)c3c2)c1 quantity_unit=% value_reported=3.11

Find the recorded inhibition belonging to `Cc1ccc(O)cc1Nc1ccnc2cc(-c3ccccn3)ccc12` and report it.
0.26

So what's the measured inhibition for this one? `Fc1ccc(-c2nn3ccccc3c2-c2ccncc2)cc1`
1.98

Recorded inhibition for `CCCN1CCC(c2ccc(Nc3nc(Nc4cc(F)ccc4C(N)=O)c4cc[nH]c4n3)c(OC)c2)CC1` , please?
37.9

Look up inhibition for this compound: `CNC(=O)c1cncc(/C=C/c2ccccc2Cl)c1`
-4.17

Any idea what inhibition was measured for `NS(=O)(=O)c1ccc(Nc2ncc(-c3ccccc3)o2)cc1` ?
-0.71

Reported inhibition for `O=S(=O)(CCNCc1ccc(-c2ccc3ncnc(Nc4ccc(OCc5cccc(F)c5)c(Cl)c4)c3c2)o1)c1ccccc1` : what is it?
0.28

Could you share which inhibition value was measured for `COc1cc(N2CCN(C(C)C)CC2)ccc1Nc1nc(Nc2ccc(F)cc2C(N)=O)c2cc[nH]c2n1` ?
29.3

I'd like to know its inhibition. The compound in question is `CCn1cc(-c2ccnc3[nH]ccc23)c(-c2cccc(NC(=O)Nc3ccc(OCc4ccccc4)cc3)c2)n1`
-0.67

I am curious: what inhibition value has been reported for `COc1cccc(-n2ncc3c(N/N=C/c4ccc(F)cc4)ncnc32)c1` ?
-2.57

inhibition for `O=C(O[C@H]1CN[C@H](C#Cc2cc3ncnc(Nc4ccc(Cc5ccccc5)cc4)c3s2)C1)N1CCOCC1` ?
-2.21

Quick check: inhibition of `COc1ccc(-c2cc3c(N)ncnc3o2)cc1` ?
-1.72

Recorded inhibition of `N#Cc1c(NC(=O)c2ccc(F)cc2)sc2c1CCCC2` , please.
2.49

Report inhibition for `CCn1c(-c2nonc2N)nc2cnc(Oc3cccc(NC(=O)c4ccc(N(C)C)cc4)c3)cc21` please.
1.14

Which inhibition is reported for this compound? `COc1cc(/C=N/Nc2ncnc3[nH]ncc23)ccc1O`
-0.84

Name the reported inhibition value associated with the compound `NC(=O)c1sc(-n2cnc3ccc(C(F)(F)F)cc32)cc1OCc1ccccc1Br`
2.02

Please look up its inhibition: `CCn1c(-c2nonc2N)nc2ccccc21`
1.93

Source listed as ChEMBL document CHEMBL1961873.
